# Tested on: BRD pathogens, M. haemolytica and P. multocida
# PROTOCOL_TEXT: MIC screening panel of BRD pathogens (antibacterial / non-antibacterial)
# CONDITION_CONTEXT: read-out: antibacterial / non-antibacterial (MIC for the BRD pathogens)
Entries and their MIC values follow.

CC[C@H]1OC(=O)[C@H](C)[C@@H](O[C@H]2C[C@@](C)(OC)[C@](O)(CNCC3CCN(C(C)=O)CC3)[C@H](C)O2)[C@H](C)[C@@H](O[C@@H]2O[C@H](C)C[C@H](N(C)C(=O)N(C)c3ccccc3)[C@H]2O)[C@](C)(O)C[C@@H](C)CN[C@H](C)[C@@H](O)[C@]1(C)O > 64 µg/mL

Proceed to the following item.
Incoming: Quick one: MIC of `CCCNC[C@]1(O)[C@H](C)O[C@@H](O[C@H]2[C@H](C)[C@@H](O[C@@H]3O[C@H](C)C[C@H](N(C)C(=O)Nc4ccccc4Cl)[C@H]3O)[C@](C)(O)C[C@@H](C)CN[C@H](C)[C@@H](O)[C@](C)(O)[C@@H](CC)OC(=O)[C@@H]2C)C[C@@]1(C)OC` ?
Outgoing: > 64 µg/mL

* * *

# System: BRD pathogens, M. haemolytica and P. multocida
# PROTOCOL_TEXT: MIC screening panel of BRD pathogens (antibacterial / non-antibacterial)
# CONDITION_CONTEXT: read-out: antibacterial / non-antibacterial (MIC for the BRD pathogens)
Entries and their MIC values follow.

Some solved cases for reference:
CCCNC[C@]1(O)[C@H](C)O[C@@H](O[C@H]2[C@H](C)[C@@H](O[C@@H]3O[C@H](C)C[C@H](N(C)C(=O)N(C)c4ncc(C5CC5)cn4)[C@H]3O)[C@](C)(O)C[C@@H](C)CN[C@H](C)[C@@H](O)[C@](C)(O)[C@@H](CC)OC(=O)[C@@H]2C)C[C@@]1(C)OC > 64 µg/mL
CCCNC[C@]1(O)[C@H](C)O[C@@H](O[C@H]2[C@H](C)[C@@H](O[C@@H]3O[C@H](C)C[C@H](N(C)C(=O)NCCN(C)C)[C@H]3O)[C@](C)(O)C[C@@H](C)CN[C@H](C)[C@@H](O)[C@](C)(O)[C@@H](CC)OC(=O)[C@@H]2C)C[C@@]1(C)OC > 64 µg/mL
CC[C@H]1OC(=O)[C@H](C)[C@@H](O[C@H]2C[C@@](C)(OC)[C@](O)(CN(C)C3CCC3)[C@H](C)O2)[C@H](C)[C@@H](O[C@@H]2O[C@H](C)C[C@H](N(C)C(=O)N(C)c3ccccc3)[C@H]2O)[C@](C)(O)C[C@@H](C)CN[C@H](C)[C@@H](O)[C@]1(C)O > 64 µg/mL
CC[C@H]1OC(=O)[C@H](C)[C@@H](O[C@H]2C[C@@](C)(OC)[C@@H](O)[C@H](C)O2)[C@H](C)[C@@H](O[C@@H]2O[C@H](C)C[C@H](N(C)C(=O)Nc3ccc(F)cc3)[C@H]2O)[C@](C)(O)C[C@@H](C)CN(C)[C@H](C)[C@@H](O)[C@]1(C)O > 64 µg/mL
CC[C@H]1OC(=O)[C@H](C)[C@@H](O)[C@H](C)[C@@H](O[C@@H]2O[C@H](C)C[C@H](N(C)C(=O)Nc3cccc(C)c3)[C@H]2O)[C@](C)(O)C[C@@H](C)CN[C@H](C)[C@@H](O)[C@]1(C)O > 64 µg/mL

Incoming: // lookup MIC | system=BRD pathogens, M. haemolytica and P. multocida | key= `CC[C@H]1OC(=O)[C@H](C)[C@@H](O[C@H]2C[C@@](C)(OC)[C@](O)(CCl)[C@H](C)O2)[C@H](C)[C@@H](O[C@@H]2O[C@H](C)C[C@H](N(C)C(=O)N(C)c3ccccc3)[C@H]2O)[C@](C)(O)C[C@@H](C)CN[C@H](C)[C@@H](O)[C@]1(C)O`
Outgoing: > 64 µg/mL

Incoming: Likewise for `CC[C@H]1OC(=O)[C@H](C)[C@@H](O[C@H]2C[C@@](C)(OC)[C@](O)(CN3CC(N4CCCCC4)C3)[C@H](C)O2)[C@H](C)[C@@H](O[C@@H]2O[C@H](C)C[C@H](N(C)C(=O)N(C)c3ccccc3)[C@H]2O)[C@](C)(O)C[C@@H](C)CN[C@H](C)[C@@H](O)[C@]1(C)O` ?
Outgoing: > 64 µg/mL
